STUDY_TARGET: Alpha-1D adrenergic receptor (Homo sapiens, UniProt P25100)
Sequence (P25100 whole entry): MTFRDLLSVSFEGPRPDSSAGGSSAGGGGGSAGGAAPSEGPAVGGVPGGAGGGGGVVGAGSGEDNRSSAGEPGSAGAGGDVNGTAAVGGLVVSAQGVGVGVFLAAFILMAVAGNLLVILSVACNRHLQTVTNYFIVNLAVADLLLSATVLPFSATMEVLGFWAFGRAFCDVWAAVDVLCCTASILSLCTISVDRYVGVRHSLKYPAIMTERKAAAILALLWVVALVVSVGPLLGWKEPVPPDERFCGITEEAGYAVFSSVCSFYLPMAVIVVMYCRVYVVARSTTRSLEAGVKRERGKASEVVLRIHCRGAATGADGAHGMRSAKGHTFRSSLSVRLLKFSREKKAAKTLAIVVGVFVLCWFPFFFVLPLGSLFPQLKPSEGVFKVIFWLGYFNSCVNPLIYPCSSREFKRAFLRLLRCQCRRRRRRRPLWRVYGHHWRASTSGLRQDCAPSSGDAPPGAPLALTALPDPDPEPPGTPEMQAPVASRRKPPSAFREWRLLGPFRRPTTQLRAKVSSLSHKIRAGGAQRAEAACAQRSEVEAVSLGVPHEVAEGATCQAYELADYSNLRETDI
PROCEDURE_SUMMARY: Activation of recombinant human adrenergic, alpha-1D receptor expressed in rat-1 fibroblasts assayed via calcium mobilization through Gq coupled PLC pathway
Format: functional
REPORTED_METRIC: EC50 (nM)

[P] c1c[nH]c(-c2ccccc2OCC2=NCCN2)c1
[Q] c1ccc(-c2ccccc2NCC2=NCCN2)cc1
Smaller EC50 value? Options are P and Q Selection: enter the item's label.
P

###

# EC50 listing for each entry below
STUDY_TARGET: Alpha-1D adrenergic receptor (Homo sapiens)
PROCEDURE_SUMMARY: Activation of recombinant human adrenergic, alpha-1D receptor expressed in rat-1 fibroblasts assayed via calcium mobilization through Gq coupled PLC pathway

Past entries and their recorded results:
> print(dat)
                             structure                              study.target  reported.metric     result
1  CS(=O)(=O)Nc1ccc(F)c([C@@H](O)CN)c1  Alpha-1D adrenergic receptor (Homo sapiens)             EC50   > 100 µM
2       Cc1ccnc(-c2ccccc2OCC2=NCCN2)c1  Alpha-1D adrenergic receptor (Homo sapiens)             EC50   > 100 µM
3    c1ccc(-c2cc[nH]n2)c(OCC2=NCCN2)c1  Alpha-1D adrenergic receptor (Homo sapiens)             EC50   > 100 µM
4         c1csc(-c2ccccc2OCC2=NCCN2)c1  Alpha-1D adrenergic receptor (Homo sapiens)             EC50  0.0158 µM

Proceed to the following item.
Please supply the value of reported EC50 for the item c1coc(-c2ccccc2OCC2=NCCN2)c1
> 100 µM
